- experimental-system: human calcium receptor (Homo sapiens, UniProt P41180, R990G)
- Construct: expressed in transfected cells; host or cells: HEK 293
- Sequence (P41180 20-1078 R990G): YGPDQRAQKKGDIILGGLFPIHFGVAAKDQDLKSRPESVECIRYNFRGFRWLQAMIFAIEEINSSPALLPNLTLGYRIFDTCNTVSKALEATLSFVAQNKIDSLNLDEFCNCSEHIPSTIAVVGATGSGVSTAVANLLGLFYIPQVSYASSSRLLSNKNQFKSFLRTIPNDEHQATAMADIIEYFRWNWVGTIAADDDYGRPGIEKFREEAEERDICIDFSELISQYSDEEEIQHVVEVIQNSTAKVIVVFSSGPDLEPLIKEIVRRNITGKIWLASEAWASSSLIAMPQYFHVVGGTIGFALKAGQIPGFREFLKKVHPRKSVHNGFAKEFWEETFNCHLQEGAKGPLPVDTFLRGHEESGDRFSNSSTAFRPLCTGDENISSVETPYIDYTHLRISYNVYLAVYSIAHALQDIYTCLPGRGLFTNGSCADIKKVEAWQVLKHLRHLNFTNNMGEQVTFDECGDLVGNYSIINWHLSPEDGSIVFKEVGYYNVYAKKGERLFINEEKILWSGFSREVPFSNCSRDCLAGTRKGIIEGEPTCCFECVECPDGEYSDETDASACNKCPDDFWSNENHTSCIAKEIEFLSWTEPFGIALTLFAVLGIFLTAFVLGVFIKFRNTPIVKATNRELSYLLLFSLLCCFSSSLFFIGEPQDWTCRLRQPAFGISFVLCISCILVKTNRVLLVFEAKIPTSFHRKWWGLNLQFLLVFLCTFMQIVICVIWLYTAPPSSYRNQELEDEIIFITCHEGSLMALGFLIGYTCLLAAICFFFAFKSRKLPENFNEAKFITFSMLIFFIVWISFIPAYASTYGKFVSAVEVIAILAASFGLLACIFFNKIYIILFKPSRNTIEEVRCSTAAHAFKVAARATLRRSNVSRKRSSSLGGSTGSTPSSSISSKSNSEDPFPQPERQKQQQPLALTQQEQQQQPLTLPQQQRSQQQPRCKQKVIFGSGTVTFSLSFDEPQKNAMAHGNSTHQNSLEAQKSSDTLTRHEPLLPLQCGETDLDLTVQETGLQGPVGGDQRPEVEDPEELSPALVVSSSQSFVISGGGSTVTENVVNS
- procedure-details: increases in [Ca^2+ ]i in HEK-293 cells expressing the human calcium receptor (fura-2 loaded HEK 293/pHuPCaR4.0 cells), % activity
- Assay type: cell-based
- stated-conditions: 33 ng/mL
Counter-ions that a name gives are not always drawn.
Decide using % activity: a value greater than or equal to 70% is 1, a smaller one is 0.

compound	class-assignment
CC(NC1CC1c1ccccc1)c1cccc2ccccc12 (stereo not shown) [Compound 10V]	0
COc1ccc(CNC(C)c2cccc(SC)c2)cc1C (stereo not shown) [Compound 24Z]	1
COc1cccc(C(C)NC(C)c2cccc3ccccc23)c1 (stereo not shown) [Compound 14Z]	1
COc1cccc([C@@H](C)NCC=Cc2ccccc2C)c1 [Compound 12C]	1
CC(NC1CCc2ccccc21)c1cccc2ccccc12 (mixture of isomers)	0
CC(NC(C)c1cccc2ccccc12)c1ccccc1 (stereo not shown) [Compound 14P]	1
COc1cccc([C@@H](C)NCCCc2c(F)cccc2F)c1 [Compound 24L]	0
C[C@@H](NCc1ccc(Cl)c(Cl)c1)c1cccc2ccccc12 [Compound 13R]	1
CC(C)C(N[C@H](C)c1cccc2ccccc12)c1ccc2ccccc2c1 (stereo partly shown) [Compound 10F]	1
COc1ccc(CNC(C)c2cccc(-c3ccccc3)c2)cc1C (stereo not shown) [Compound 18T]	0
COC(=O)c1cccc(C(C)NCc2ccc(OC)c(C)c2)c1 (stereo not shown) [Compound 24U]	1
CC(N[C@H](C)c1cccc2ccccc12)c1ccc2ccccc2c1 (stereo partly shown)	1
COc1ccc(CNC(C)c2ccc(I)cc2)cc1C (stereo not shown) [Compound 23T]	0
COc1cccc(CCNC(C)c2cccc3ccccc23)c1 (stereo not shown) [Compound 15I]	1
C[C@@H](NCc1ccc(C(C)(C)C)cc1)c1cccc2ccccc12 [Compound 15G]	1
COc1cccc([C@@H](C)NCCCc2cccc(F)c2)c1	0
COc1cccc([C@@H](C)NC2Cc3ccccc3C2)c1 [Compound 25P]	1
CSc1cccc(C(C)NCCCc2ccccc2Cl)c1 (stereo not shown)	1
CC(NCc1cccc2ccccc12)c1ccccc1 (stereo not shown)	0
COc1cccc([C@@H](C)NC[C@@H](C)c2ccc(CC(C)C)cc2)c1 [Compound 13Y]	0
COc1cccc(C(C)NCC=Cc2ccccc2OC)c1 (stereo not shown)	0
CC(N[C@H](C)c1ccccc1)c1cccc2ccccc12 (stereo partly shown)	0
COc1cccc(C(C)NCCC(C)c2ccc(Cl)cc2)c1 (stereo not shown)	0
C[C@@H](NCCCc1cccc(OC(F)(F)F)c1)c1cccc2ccccc12 [Compound 24J]	1
C[C@@H](NCc1ccc(N(C)C)cc1)c1cccc2ccccc12 [Compound 13V]	1
COc1ccc(CNC(C)c2ccc(F)c3ccccc23)cc1C (stereo not shown) [Compound 18A]	1
COc1cccc(C(C)NCc2cccc3ccccc23)c1 (stereo not shown)	0
COc1cccc([C@@H](C)NCCCc2ccccc2F)c1 [Compound 21R]	0
C[C@@H](NCC=C(c1ccccc1)c1ccccc1)c1ccccc1	0
COc1cccc([C@@H](C)NCCCc2cccc(C(F)(F)F)c2)c1 [Compound 21P]	0
COc1ccc(CNC(C)c2cccc(C(F)(F)F)c2)cc1C (stereo not shown) [Compound 24C]	1
COc1cccc([C@@H](C)NCC=Cc2ccc(C(C)C)cc2)c1 [Compound 12E]	1
COc1ccc(CNC(C)c2ccccc2)cc1C (stereo not shown) [Compound 23G]	0
CCOc1cccc([C@@H](C)NCCCc2ccccc2)c1	0
CC(C)c1ccc(CN[C@H](C)c2cccc3ccccc23)cc1.Cl [Compound 11X]	1
COc1cccc([C@@H](C)NCc2ccc(C(C)C)cc2)c1 [Compound 11Y]	0
COc1cccc([C@@H](C)NCCCc2ccccc2OC)c1 [Compound 8U, hydrochloride]	1
